- Test system: MDA-MB-435 melanoma
- experimentDescription: NCI-60 one-dose screen, 48 h
- conditions: 10 µM unless noted
About 83,000 compounds went through this panel and 20% of them were active in at least one assay; those are over-represented in the sample as a whole. Calls of active or inactive are those of the source. The calls were made as follows: active = growth percent below 10; inactive = the rest.
Answer with one of the outcomes given here: 1.0 (active), 0.0 (inactive)

Observe how each entry below is paired with its result.
O=C1OCC2=C1C(c1ccccc1)c1cc3c(cc1N2CCO)CCC3 (stereo not given) : 1.0
COc1ccc2nc(-c3ccc(-c4noc(-c5ccc(Cl)cc5)n4)cc3)[nH]c2c1 : 0.0
CC(C)c1ccc2c(c1)CCC1C2CCCC1(C)NCc1ccccc1 (stereo not given) : 0.0

QUERY: Please state the recorded outcome for this compound: CN(C)c1ccc(C2(Cl)c3ccccc3N(C)c3ccccc32)cc1
RESULT: 0.0

QUERY: Please share the test call associated with N=C(N)c1ccc(NCCNc2ccc(C(=N)N)cc2)cc1 .
RESULT: 0.0

====

- Tested on: NCI/ADR-RES ovarian
- experimentDescription: NCI-60 one-dose screen, 48 h
- conditions: 10 µM unless noted
- Description: Growth inhibition of the NCI/ADR-RES human […] tumor cell line is measured as a screen for anti-cancer activity. Cells are grown in 96 well plates and exposed to the test compound for 48 hours. Compounds are tested at a single concentration, which is 10^-5 M for most compounds. The reported endpoint is percent growth (GI% or GIPRCNT), where numbers from 0 - 100% represent growth inhibition, and numbers from -100% - 0 represent cell death. For example, a value of 40 represents 60% growth inhibition. […]
The panel holds about 83,000 compounds, 20% with a hit somewhere; the sample as a whole holds those more often. Active and inactive are the calls of the source. How the source made its calls: active means growth percent below 10; inactive means the rest.
Respond with a class label; see active, inactive

Here are 8 compounds together with their reported answers.
CC(C)c1ccc2c(c1)CCC1C2CCCC1(C)NCc1ccccc1 (stereo unspecified) : inactive
Nc1ccc(C2=NNC(=O)Cc3cc4c(cc32)OCCO4)cc1Cl : inactive
O=c1c2cc(Cl)ccc2oc2ccc(OCCCCCN3CCCCCC3)cc12 : inactive
CS(=O)(=O)c1ccc(Cl)c([N+](=O)[O-])c1 : inactive
O=C(/C=C/c1cn(-c2ccccc2)nc1-c1ccccc1)OCc1cn(-c2cccc([N+](=O)[O-])c2)nn1 : inactive
O=C(O)C(CCc1ccccc1)NCc1ccccc1 (stereo unspecified) : inactive
C/C(=N\NC(=O)CSc1nc2ccccc2c(=O)n1CCc1ccc(S(N)(=O)=O)cc1)c1ccc(Br)cc1 : inactive
CN1C2CCC1/C(=C\c1ccc(F)cc1)C(=O)/C2=C/c1ccc(F)cc1 : inactive

QUERY: Look up the recorded call for CCSCC1CC(O)(c2ccccc2)C(c2ccccc2)C(c2ccc(F)cc2)O1 (stereo unspecified) in this test.
RESULT: active

QUERY: Entry NC(N)=N/N=C/c1cccc(Cl)c1Cl : call = ?
RESULT: inactive

QUERY: Write down the call the test reported for this compound. Item: C=CC(=O)N1CN(C(=O)C=C)CN(C(=O)C=C)C1
RESULT: inactive

====

- Tested on: SNB-75 CNS
- experimentDescription: NCI-60 one-dose screen, 48 h
- conditions: 10 µM unless noted
This is part of a sample that, as a whole, favours compounds with a hit. Of some 83,000 tested, about 20% had one in any assay. Activity calls are given as the source filed them. Rule for the calls: active = growth percent below 10; inactive = the rest.
Outcome (select one): YES (active), NO (inactive)

Solved entries (count: 5):
CCCCCCCCCCCC1=NC(C)(C)CN1CCO : NO
C=C1C(=O)O[C@H]2[C@H]1CC/C(COC(=O)N[C@@H](Cc1c[nH]c3ccccc13)C(=O)OC)=C\CC[C@@]1(C)O[C@@H]21 : NO
COc1ccc(-c2ccc(-c3ccc(C(=N)N)s3)s2)cc1 : YES
COc1ccc(-n2c(COc3ccc(F)cc3)n[nH]c2=S)cc1 : NO
Oc1ccc(-c2nc3ccccc3s2)cc1CN(Cc1ccccn1)Cc1ccccn1 : NO

QUERY: Given CN1C(=O)C(C2=NNC(c3ccccc3C(=O)O)C2)C(=O)N(C)C1=O (stereo unspecified) , state the outcome it received in this test.
RESULT: NO

QUERY: Short answer needed: outcome of this test for COc1cc(C2CC(c3ccc(Cl)cc3)=NN2C(C)=O)ccc1Oc1ccnc2cc(Cl)ccc12 (stereo unspecified) ?
RESULT: NO
